- test system: human KDR (human, UniProt P35968 20-1356)
- Sequence (P35968 20-1356): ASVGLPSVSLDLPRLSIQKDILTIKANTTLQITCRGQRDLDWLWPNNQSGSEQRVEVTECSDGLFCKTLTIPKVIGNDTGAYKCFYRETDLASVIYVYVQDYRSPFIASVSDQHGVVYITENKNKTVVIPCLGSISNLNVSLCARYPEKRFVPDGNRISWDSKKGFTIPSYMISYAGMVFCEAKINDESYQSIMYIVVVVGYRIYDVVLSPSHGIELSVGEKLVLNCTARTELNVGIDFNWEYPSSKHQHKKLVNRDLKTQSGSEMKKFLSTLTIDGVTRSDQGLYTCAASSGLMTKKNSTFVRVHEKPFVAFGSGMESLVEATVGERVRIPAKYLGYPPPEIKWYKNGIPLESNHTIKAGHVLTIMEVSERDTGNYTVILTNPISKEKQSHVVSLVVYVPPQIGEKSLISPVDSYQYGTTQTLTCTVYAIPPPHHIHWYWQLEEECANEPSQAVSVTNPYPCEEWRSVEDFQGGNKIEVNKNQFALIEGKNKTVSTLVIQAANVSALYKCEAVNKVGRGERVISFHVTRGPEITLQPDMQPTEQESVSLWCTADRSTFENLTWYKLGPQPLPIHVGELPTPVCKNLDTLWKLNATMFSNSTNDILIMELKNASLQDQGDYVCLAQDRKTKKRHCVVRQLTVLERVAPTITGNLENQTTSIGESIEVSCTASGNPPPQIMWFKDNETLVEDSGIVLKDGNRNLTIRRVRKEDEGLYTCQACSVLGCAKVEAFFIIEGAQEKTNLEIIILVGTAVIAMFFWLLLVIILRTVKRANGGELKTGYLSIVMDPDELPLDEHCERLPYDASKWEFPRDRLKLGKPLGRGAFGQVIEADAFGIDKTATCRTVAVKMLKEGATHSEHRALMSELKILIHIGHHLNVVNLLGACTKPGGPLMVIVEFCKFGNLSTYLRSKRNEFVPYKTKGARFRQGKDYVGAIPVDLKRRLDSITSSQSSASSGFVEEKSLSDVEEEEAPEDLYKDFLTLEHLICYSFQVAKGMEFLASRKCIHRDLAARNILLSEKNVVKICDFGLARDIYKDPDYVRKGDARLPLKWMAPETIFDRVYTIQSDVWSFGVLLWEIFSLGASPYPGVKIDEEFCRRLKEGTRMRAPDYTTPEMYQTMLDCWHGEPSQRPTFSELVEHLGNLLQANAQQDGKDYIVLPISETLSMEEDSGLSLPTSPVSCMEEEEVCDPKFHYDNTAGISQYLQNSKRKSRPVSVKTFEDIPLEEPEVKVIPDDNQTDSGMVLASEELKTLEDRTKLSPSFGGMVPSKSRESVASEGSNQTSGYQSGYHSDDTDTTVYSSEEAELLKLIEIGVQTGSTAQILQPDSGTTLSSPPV
- experimental protocol: cell-based or functional assay
Below, each entry is listed alongside its reported KDR tyrosine phosphorylation in HUVEC, Maximum Inhibition at 100 nM (% Inhibition), N = 2.
# value in %; strip the unit string

binder | value measured
33C3 (antibody, V domains shown, Fully human monoclonal antibody from a XenoMouse hybridoma (IgG2 or IgG4 strain), purified) VH: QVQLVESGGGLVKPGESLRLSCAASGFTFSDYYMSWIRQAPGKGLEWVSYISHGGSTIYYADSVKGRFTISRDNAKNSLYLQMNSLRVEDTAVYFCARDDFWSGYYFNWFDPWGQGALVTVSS VL: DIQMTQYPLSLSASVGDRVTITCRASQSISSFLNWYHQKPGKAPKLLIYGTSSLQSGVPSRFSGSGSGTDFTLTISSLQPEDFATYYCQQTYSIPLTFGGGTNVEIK | 86
24B3 (antibody, V domains shown, Fully human monoclonal antibody from a XenoMouse hybridoma (IgG2 or IgG4 strain), purified) VH: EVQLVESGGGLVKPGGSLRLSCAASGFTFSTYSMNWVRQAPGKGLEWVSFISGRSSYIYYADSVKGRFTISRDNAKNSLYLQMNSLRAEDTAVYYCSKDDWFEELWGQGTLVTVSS VL: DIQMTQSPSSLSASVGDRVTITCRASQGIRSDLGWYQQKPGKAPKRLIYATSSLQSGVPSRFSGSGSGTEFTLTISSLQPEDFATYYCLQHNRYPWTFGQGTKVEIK | 84

Would you kindly look at the next entry?
I'd like to know its KDR tyrosine phosphorylation in HUVEC, Maximum Inhibition at 100 nM (% Inhibition), N = 2. The binder in question is 33E1 (antibody, V domains shown, Fully human monoclonal antibody from a XenoMouse hybridoma (IgG2 or IgG4 strain), purified) VH: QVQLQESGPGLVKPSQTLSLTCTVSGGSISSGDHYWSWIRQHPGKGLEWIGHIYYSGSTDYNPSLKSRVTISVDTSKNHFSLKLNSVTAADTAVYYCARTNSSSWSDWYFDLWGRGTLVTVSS VL: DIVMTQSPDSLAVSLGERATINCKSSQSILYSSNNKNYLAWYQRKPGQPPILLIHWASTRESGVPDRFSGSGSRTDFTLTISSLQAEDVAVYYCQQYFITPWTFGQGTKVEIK
75
